System: NF-κB (p105/p50) nuclear translocation in CD4 and CD8 positive T cells
Experimental Details: NF-kB nuclear translocation in T cells from NHL peripheral whole blood
Type: cell-based, human
Condition Notes: Homo sapiens, CD8 positive, overnight, CD3/CD28 stimulation 6 h, read-out: IC50, NFκB nuclear translocation in T cells
Readout Name: IC50

response.value for O=C(Nc1ccnc(C(F)(F)F)c1)c1cnn(-c2cccc3c(=O)[nH]ccc23)c1C(F)(F)F (field: IC50) = ~9.5 µM
